In this section we review reported pKd values for a set of binders.
Molecular target: T1, TIAM2, Q8IVF5
T1 sequence (Q8IVF5 885-986, limits assumed, looked up): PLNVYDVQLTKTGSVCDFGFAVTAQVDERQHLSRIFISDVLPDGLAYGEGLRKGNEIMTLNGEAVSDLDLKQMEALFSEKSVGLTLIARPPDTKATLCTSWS
Assay: holdup assay
Design: key: below the threshold = too weak to quantify, mostly under pKd 3.1 to 4
Conditions: plain residues with an end cap or a label only (N-terminal biotin on a linker: ado-ado)
Answer using only a numeral; do not append any unit.

{"binder": "DGVNEKVSCV [HTR2A, P28223]", "reported_property": "pKd", "recorded_number": 4.01}

# get_value(readout='pKd', item= PYPTADHMLA [JUP, P14923] )
3.92
